procedure summary: Pharmacokinetic study in rats: CP and DECP with and without KTZ, KTZ alone
Type: in vivo
run conditions: rat, plasma, iv, 10 mg/kg, Cmax, Group 3 (20 mg/kg KTZ oral, 50 min before); CP 10 mg/kg i.v., rats
reported property: Cmax (µg/mL)

1. O=P1(N(CCCl)CCCl)NCCCO1 (stereo not shown) [CP, Cyclophosphamide] :: 11.4

---

test target: CYP3A4 (Homo sapiens, UniProt P08684)
Sequence (P08684 whole entry): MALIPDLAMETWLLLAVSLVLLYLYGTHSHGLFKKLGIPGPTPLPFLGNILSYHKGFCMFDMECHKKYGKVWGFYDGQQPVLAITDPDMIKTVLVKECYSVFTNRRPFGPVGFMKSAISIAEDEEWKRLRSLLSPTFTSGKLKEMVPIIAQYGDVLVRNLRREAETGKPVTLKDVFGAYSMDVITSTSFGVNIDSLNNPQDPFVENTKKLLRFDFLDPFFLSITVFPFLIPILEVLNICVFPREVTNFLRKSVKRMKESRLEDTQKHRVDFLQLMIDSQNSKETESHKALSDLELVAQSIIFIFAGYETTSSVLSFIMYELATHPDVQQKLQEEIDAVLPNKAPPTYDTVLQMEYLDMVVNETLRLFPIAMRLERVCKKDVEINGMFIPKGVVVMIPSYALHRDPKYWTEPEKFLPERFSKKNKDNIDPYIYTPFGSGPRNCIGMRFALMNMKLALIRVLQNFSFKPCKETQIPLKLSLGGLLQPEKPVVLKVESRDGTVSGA
procedure summary: in vitro
run conditions: human liver microsomes
reported property: Km (µM)

1) O=P1(N(CCCl)CCCl)NCCCO1 (stereo not shown) [CP, Cyclophosphamide] :: 160

---

procedure summary: Pharmacokinetic study in rats: CP and DECP with and without KTZ, KTZ alone
Type: in vivo
run conditions: rat, plasma, iv, 10 mg/kg, AUC0→∞, Group 3 (20 mg/kg KTZ oral, 50 min before); CP 10 mg/kg i.v., rats
reported property: AUC(0-inf) (ng·h/mL)

1) O=P1(N(CCCl)CCCl)NCCCO1 (stereo not shown) [CP, Cyclophosphamide] :: 29600

---

procedure summary: Pharmacokinetic study in rats: CP and DECP with and without KTZ, KTZ alone
Format: in vivo
run conditions: rat, plasma, iv, 10 mg/kg, Tmax, Group 1 (0 mg/kg KTZ); CP 10 mg/kg i.v., rats
reported property: Tmax (min)

1. O=P1(N(CCCl)CCCl)NCCCO1 (stereo not shown) [CP, Cyclophosphamide] :: 11.6

---

procedure summary: Pharmacokinetic study in rats: CP and DECP with and without KTZ, KTZ alone
Type: in vivo
run conditions: rat, plasma, iv, 10 mg/kg, Tmax, Group 3 (20 mg/kg KTZ oral, 50 min before); CP 10 mg/kg i.v., rats
reported property: Tmax (min)

1. O=P1(N(CCCl)CCCl)NCCCO1 (stereo not shown) [CP, Cyclophosphamide] :: 8.34

---

procedure summary: Pharmacokinetic study in rats: CP and DECP with and without KTZ, KTZ alone
Assay type: in vivo
run conditions: rat, plasma, iv, 10 mg/kg, MRT0–∞, Group 2 (10 mg/kg KTZ oral, 50 min before); CP 10 mg/kg i.v., rats
reported property: MRT inf (h)

1) O=P1(N(CCCl)CCCl)NCCCO1 (stereo not shown) [CP, Cyclophosphamide] :: 1.86

---

procedure summary: Pharmacokinetic study in rats: CP and DECP with and without KTZ, KTZ alone
Type: in vivo
run conditions: rat, plasma, iv, 10 mg/kg, MRT0–t, Group 3 (20 mg/kg KTZ oral, 50 min before); CP 10 mg/kg i.v., rats
reported property: MRT last (h)

1. O=P1(N(CCCl)CCCl)NCCCO1 (stereo not shown) [CP, Cyclophosphamide] :: 2.04

---

procedure summary: Pharmacokinetic study in rats: CP and DECP with and without KTZ, KTZ alone
Assay type: in vivo
run conditions: rat, plasma, iv, 10 mg/kg, MRT0–t, Group 1 (0 mg/kg KTZ); CP 10 mg/kg i.v., rats
reported property: MRT last

1) O=P1(N(CCCl)CCCl)NCCCO1 (stereo not shown) [CP, Cyclophosphamide] :: 1.7 h

---

procedure summary: Pharmacokinetic study in rats: CP and DECP with and without KTZ, KTZ alone
Format: in vivo
run conditions: rat, plasma, po, 20 mg/kg
reported property: MRT last (h)

1. CC(=O)N1CCN(c2ccc(OCC3COC(Cn4ccnc4)(c4ccc(Cl)cc4Cl)O3)cc2)CC1 (stereo not shown) :: 1.86
